As shown below, each of these compounds has a reported PROTECTION (%) AT 10 uM value.
system: ARPE-19 cells; experiment: Cell viability assay: protection of RPE cells from tBH oxidative stress; format: cell-based; conditions: 10 uM; protection of RPEs from oxidative stress (0.3 mM tBH), ARPE-19 cells

- compound: "Clc1ccc2c(c1)N=C(N1CCNCC1)c1ccccc1N2"
  PROTECTION (%) AT 10 uM: 77
- compound: "Cc1cc2c(s1)Nc1ccccc1N=C2N1CCNCC1 [Metabolite B, N-desmethyl olanzapine]"
  PROTECTION (%) AT 10 uM: 129
- compound: "Cc1cc2c(s1)Nc1ccccc1N=C2N1CC[N+](C)([O-])CC1 [Metabolite A, Olanzapine-N-oxide]"
  PROTECTION (%) AT 10 uM: 103
- compound: "Cc1cc2c(s1)Nc1ccccc1N=C2N1CCN(C)CC1"
  PROTECTION (%) AT 10 uM: 116
